- test-system: intracellular phosphorylation of EGFR in NCI-H1975 cell line that harbors the EGFR L858R T790M mutations (Homo sapiens, UniProt P00533, L858R/T790M)
- Construct: NCI-H1975 cell line that harbors the EGFR L858R T790M mutations (ATCC, CRL-5908); host or cells: NCI-H1975
- Sequence (P00533 25-1210 T790M/L858R): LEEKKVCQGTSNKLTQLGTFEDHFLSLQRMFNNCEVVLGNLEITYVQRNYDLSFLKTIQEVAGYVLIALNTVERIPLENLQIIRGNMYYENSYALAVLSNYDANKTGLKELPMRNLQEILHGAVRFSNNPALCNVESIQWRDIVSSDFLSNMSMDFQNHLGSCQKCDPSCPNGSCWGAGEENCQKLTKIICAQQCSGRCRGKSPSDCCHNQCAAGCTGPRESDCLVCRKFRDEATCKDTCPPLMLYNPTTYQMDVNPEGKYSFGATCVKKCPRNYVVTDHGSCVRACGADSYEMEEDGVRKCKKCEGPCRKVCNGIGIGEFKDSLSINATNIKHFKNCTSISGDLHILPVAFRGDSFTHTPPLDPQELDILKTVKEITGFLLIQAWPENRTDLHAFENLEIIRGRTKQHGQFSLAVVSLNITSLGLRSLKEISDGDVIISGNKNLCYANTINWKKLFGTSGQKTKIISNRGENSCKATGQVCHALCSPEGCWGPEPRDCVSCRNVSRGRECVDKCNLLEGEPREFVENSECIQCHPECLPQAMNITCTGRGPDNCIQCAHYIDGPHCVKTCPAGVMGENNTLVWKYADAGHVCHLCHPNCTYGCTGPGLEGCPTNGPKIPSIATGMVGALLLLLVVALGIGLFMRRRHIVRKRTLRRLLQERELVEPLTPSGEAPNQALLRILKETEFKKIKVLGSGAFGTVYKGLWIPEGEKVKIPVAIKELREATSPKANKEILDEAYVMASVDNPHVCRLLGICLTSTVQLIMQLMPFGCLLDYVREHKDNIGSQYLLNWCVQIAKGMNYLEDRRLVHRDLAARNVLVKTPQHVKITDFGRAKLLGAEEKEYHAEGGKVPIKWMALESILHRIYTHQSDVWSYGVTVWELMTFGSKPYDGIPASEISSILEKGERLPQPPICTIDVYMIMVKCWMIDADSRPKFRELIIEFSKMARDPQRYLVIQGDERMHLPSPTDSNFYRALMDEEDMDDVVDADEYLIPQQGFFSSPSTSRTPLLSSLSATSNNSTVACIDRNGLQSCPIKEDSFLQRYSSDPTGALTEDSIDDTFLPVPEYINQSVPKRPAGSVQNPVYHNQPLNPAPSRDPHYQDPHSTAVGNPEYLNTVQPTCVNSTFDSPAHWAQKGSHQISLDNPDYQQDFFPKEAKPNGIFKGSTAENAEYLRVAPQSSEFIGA
- protocol-text: NCI-H1975 pEGFR AlphaLISA assay
- Type: cell-based
- setup-conditions: NCI-H1975 cells (EGFR L858R T790M), p-EGFR (Tyr1068), 4-5 hours incubation; read-out: Ext pEGFR H1975 GMean IC50 (nM) Protocol: @Pharmaron AlphaLISA (Num)
measurement-label: IC50

Here is how some compounds turned out for IC50.
# compound, IC50
data = [
    ("C[C@@H]1[C@H](F)CN1c1ncc([C@@H](C)CO)c2cc(Nc3ccnc(N4CC[C@@H](O)[C@@](C)(F)C4)n3)ncc12 (single isomer, unassigned) [Example 210]", "10 to 20 nM"),
    ("CC(C)c1ncc(N2CC(F)C2)c2cnc(Nc3ccnc(N4CC[C@@H](O)[C@@](C)(F)C4)n3)cc12", "30 to 50 nM"),
    ("CC(C)c1ccc(N2CC(Cn3ccnn3)C2)c2cnc(Nc3ccnc(N4CC[C@](C)(O)[C@H](F)C4)n3)cc12", "20 to 30 nM"),
    ("CC(C)c1nnc(N2CC[C@H]2C(F)F)c2cnc(Nc3ccnc(N4CC[C@@H](O)[C@@](C)(F)C4)n3)cc12 (single isomer, unassigned)", "> 50 nM"),
    ("CC(C)c1cnc(N2C[C@H](O)[C@H]2C)c2cnc(Nc3ccnc(N4CC[C@@H](O)C(C)(C)C4)n3)cc12 (single isomer, unassigned)", "30 to 50 nM"),
]

Note to self: IC50 recorded for CC(C)c1cnc(-c2ncn(C)n2)c2cnc(Nc3ccnc(N4CC[C@@H](O)[C@@](C)(F)C4)n3)cc12 was > 50 nM

Note to self: IC50 recorded for CC(C)c1cnc(N2CC[C@H]2C)c2cnc(Nc3ccnc(N4CC[C@@H](OCCN(C)C)[C@@H](F)C4)n3)cc12 was 30 to 50 nM

Note to self: IC50 recorded for CC(C)c1cnc(N2CC3(CN(C)C(=O)O3)C2)c2cnc(Nc3ccnc(N4CC[C@@H](O)[C@@](C)(F)C4)n3)cc12 was 30 to 50 nM
